experiment: Half life in mouse at 25 mg/kg, po measured upto 24 hrs LC-MS/MS analysis; settings: in vivo

molecular-string | half-life at 24 h (h)
C[C@]1(COc2ccc(C(F)(F)F)cn2)CCn2cc([N+](=O)[O-])nc2O1 | 1.5
C[C@@]1(COc2ccc(C(F)(F)F)cn2)CCn2cc([N+](=O)[O-])nc2O1 | 1.5

====

biological target: hERG (KCNH2) (Homo sapiens, UniProt Q12809); experiment: Inhibition of human ERG expressed in HEK293 cells at 10 uM relative to control; type: cell-based; settings: HEK293 cells expressing human ERG
Sequence (Q12809 whole entry): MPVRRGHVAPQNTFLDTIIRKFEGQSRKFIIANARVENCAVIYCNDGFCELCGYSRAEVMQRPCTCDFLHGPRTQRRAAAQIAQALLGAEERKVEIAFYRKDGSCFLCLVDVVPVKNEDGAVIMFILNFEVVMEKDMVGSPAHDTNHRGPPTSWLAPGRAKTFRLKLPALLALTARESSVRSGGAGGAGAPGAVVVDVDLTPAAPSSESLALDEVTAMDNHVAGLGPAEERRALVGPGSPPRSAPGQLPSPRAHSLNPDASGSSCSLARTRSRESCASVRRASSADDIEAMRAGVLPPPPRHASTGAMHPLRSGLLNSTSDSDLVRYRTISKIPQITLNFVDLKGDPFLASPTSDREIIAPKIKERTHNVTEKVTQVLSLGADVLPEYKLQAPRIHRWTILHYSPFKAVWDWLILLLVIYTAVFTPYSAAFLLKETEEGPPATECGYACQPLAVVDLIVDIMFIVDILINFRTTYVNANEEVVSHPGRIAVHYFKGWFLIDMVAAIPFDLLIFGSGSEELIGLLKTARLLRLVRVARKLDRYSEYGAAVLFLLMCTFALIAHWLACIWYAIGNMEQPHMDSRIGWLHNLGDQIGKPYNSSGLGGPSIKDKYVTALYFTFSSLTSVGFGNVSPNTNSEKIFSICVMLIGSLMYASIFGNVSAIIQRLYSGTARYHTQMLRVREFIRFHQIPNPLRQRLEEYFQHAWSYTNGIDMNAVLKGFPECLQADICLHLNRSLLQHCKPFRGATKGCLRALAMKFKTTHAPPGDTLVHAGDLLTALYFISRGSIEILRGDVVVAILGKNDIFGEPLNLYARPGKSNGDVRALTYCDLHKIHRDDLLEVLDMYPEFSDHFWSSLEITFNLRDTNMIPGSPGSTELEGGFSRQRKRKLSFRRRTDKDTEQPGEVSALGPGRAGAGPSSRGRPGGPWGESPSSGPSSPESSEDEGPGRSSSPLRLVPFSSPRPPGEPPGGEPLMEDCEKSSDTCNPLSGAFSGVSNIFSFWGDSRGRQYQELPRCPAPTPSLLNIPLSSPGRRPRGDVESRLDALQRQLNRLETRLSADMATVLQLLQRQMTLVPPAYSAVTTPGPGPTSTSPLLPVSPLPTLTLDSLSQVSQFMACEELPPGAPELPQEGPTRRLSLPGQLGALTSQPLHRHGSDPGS

compound | inhibition at 10 µM [%]
O=[N+]([O-])c1cn2c(n1)OC(COc1ccc(C(F)(F)F)cn1)CC2 (stereo unspecified) | 4
O=[N+]([O-])c1cn2c(n1)OC(COc1ccc(C(F)(F)F)nc1)CC2 (stereo unspecified) | 4
CC1(COc2ccc(C(F)(F)F)nc2)CCn2cc([N+](=O)[O-])nc2O1 (stereo unspecified) | 17
O=[N+]([O-])c1cn2c(n1)OC(COc1ncc(Cl)cn1)CC2 (stereo unspecified) | 12
O=[N+]([O-])c1cn2c(n1)OC(COc1ccc(Cl)cn1)CC2 (stereo unspecified) | 17
CC1(COc2ccc(C(F)(F)F)cn2)CCn2cc([N+](=O)[O-])nc2O1 (stereo unspecified) | 18
